test system: DIV30; test: qHTS profiling for inhibitors of Plasmodium falciparum proliferation (AID 504749); further: nearly all actives have a fitted effect of over 60% in size; conditions: P. falciparum in erythrocytes, SYBR Green DNA, 72 h; series mostly up to 28.7 µM
Records with an inconclusive call do not appear. The source made the active and inactive calls. The call rests on the fitted dose curve; in most records, active means well fitted inhibition curve with a large enough effect; inconclusive means small, poorly fitted or top-dose-only effect; inactive means flat fitted curve, though single readings scatter.
Parameter call: string, one of True = active, False = inactive

q: Which outcome did this test record for the compound COc1cc(N)c(Cl)cc1C(=O)N[C@@H]1CN2CCC1CC2 ?
a: False

q: Which outcome did this test record for the compound CC[C@@]1(c2ccc(N)cc2)CCC(=O)NC1=O ?
a: False

q: Which outcome did this test record for the compound CNC(C)[C@@H](O)c1ccc(O)cc1 (stereo partly drawn) ?
a: False

q: Which outcome did this test record for the compound CNC[C@H](O)c1ccc(O)cc1 ?
a: False

q: Which outcome did this test record for the compound CO[C@@H](COC(N)=O)C1=C(N2CC2)C(=O)C(C)=C(N2CC2)C1=O ?
a: True

q: Which outcome did this test record for the compound C[C@@]12CCC(=O)C=C1C=C[C@H]1[C@H]3CC[C@](O)(CCC(=O)O)[C@]3(C)CC[C@@H]12 ?
a: False

q: Which outcome did this test record for the compound C[C@H](NC(C)(C)C)C(=O)c1cccc(Cl)c1 ?
a: False

q: Which outcome did this test record for the compound CNc1ccc(C(=O)CC(O)CCC(C)C2OC(=O)CC(O)CC(=O)CC(O)CC(O)CC(O)CC(O)CC3(O)CC(O)C(C(=O)OC)C(CC(O[C@@H]4OC(C)C(O)C(N)C4O)/C=C/C=C/C=C/C=C/C=C/C=C/C=C/C2C)O3)cc1 (stereo partly drawn) ?
a: False

q: Which outcome did this test record for the compound C[N+]1([O-])[C@@H]2CC(OC(=O)[C@@H](CO)c3ccccc3)C[C@@H]1[C@H]1O[C@H]12 (stereo partly drawn) ?
a: False

q: Which outcome did this test record for the compound CC(=O)O[C@H]1CC[C@@]2(C)C(=CC[C@@H]3[C@H]2CC[C@]2(C)C(=O)CC[C@H]32)C1 ?
a: False

q: Which outcome did this test record for the compound C[C@H]1CN(C2CCC(C#N)(c3ccc(F)cc3)CC2)CC[C@@]1(C(=O)O)c1ccccc1 (stereo partly drawn) ?
a: False

q: Which outcome did this test record for the compound CC([C@H](O)c1ccccc1)N(C)C (stereo partly drawn) ?
a: False

q: Which outcome did this test record for the compound C[C@@H]1O[C@H](O[C@@H]2C=C3CC[C@H]4[C@@H](CC[C@]5(C)[C@@H](c6ccc(=O)oc6)CC[C@]45O)[C@@]3(C)CC2)[C@@H](O)[C@H](O)[C@@H]1O ?
a: False

q: Which outcome did this test record for the compound CCCC[N+]1(C)C2CC(OC(=O)C(CO)c3ccccc3)CC1C1OC12 (stereo not drawn) ?
a: False

q: Which outcome did this test record for the compound O=C1C=C2C=CC3C[C@@]2(O1)C1CCCCN31 (stereo partly drawn) ?
a: True

q: Which outcome did this test record for the compound CCN[C@]1(c2cccs2)CCCCC1=O ?
a: False

q: Which outcome did this test record for the compound CC(=O)OCC(=O)[C@@H]1CC[C@H]2[C@H]3CC[C@H]4C[C@@H](O)CC[C@]4(C)[C@@H]3C(=O)C[C@@]12C ?
a: False

q: Which outcome did this test record for the compound CCNC[C@H](O)c1cccc(O)c1 ?
a: False

q: Which outcome did this test record for the compound CC(C)N(CC[C@@](C(N)=O)(c1ccccc1)c1ccccn1)C(C)C ?
a: False

q: Which outcome did this test record for the compound C[N+]1([O-])[C@@H]2CC[C@H]1CC(OC(=O)[C@@H](CO)c1ccccc1)C2 (stereo partly drawn) ?
a: False

q: Which outcome did this test record for the compound C=CC1CN2CCC1CC2C(OC(=O)OCC)c1ccnc2ccc(OC)cc12 (stereo not drawn) ?
a: True

q: Which outcome did this test record for the compound COc1ccc2c(c1OC)CN1CCc3cc4c(cc3[C@H]1C2)OCO4 ?
a: True

q: Which outcome did this test record for the compound CN[C@@H](C)[C@H]1CC[C@@H](N)[C@@H](O[C@@H]2[C@@H](O)[C@@H](O[C@H]3OC[C@@](C)(O)[C@@H](NC)[C@@H]3O)[C@H](N)C[C@@H]2N)O1 (tested in a mixture with another compound) ?
a: False
